For each of the compounds below, state its IC50.
# ASSAYED_SYSTEM: hNGAL (human lipocalin 2, parent wild type SEQ ID NO: 1) mutein SEQ ID NO: 53 (Homo sapiens, UniProt P80188, A60L/C107S/D97K/I61A/K154W/K93H/L123Q/L56E/L62R/L90R/N116L/N85D/Q69M/R101V/S125P/S147V/S88E/W99D/Y120D/Y126E/Y72M)
# Sequence (P80188 21-198 with the stated changes): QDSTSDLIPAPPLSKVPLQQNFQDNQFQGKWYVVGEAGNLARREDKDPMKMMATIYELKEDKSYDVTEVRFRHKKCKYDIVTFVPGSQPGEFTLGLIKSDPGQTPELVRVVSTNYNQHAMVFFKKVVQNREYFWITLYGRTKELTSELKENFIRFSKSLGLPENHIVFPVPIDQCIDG
# ASSAY_INFO: Solution binding ELISA
# PARTICULARS: Example 5
Answers are plain numbers, in pM.

Solved cases (2 shown):
>>> quantitative_result("NC(=O)CCC(=O)Nc1cc2cc([O-])c([O-])cc2[n+]2c1NCC[C@H]2C(=O)N[C@H](CO)C1=NCC[C@@H](C(=O)N[C@@H](CCCN([O-])C=O)C(=O)N[C@@H](CCC(N)=O)C(=O)N[C@H](CCC(N)=O)C(=O)N[C@H](CCCN([O-])C=O)C(=O)NCC(=O)O)N1.[Fe+3] [Pvd III sa (+Fe), Pvd type III succinamide]")
250
>>> quantitative_result("NC(=O)CC[C@H](NC(=O)[C@H](CCCN([O-])C=O)NC(=O)[C@@H]1CCN=C([C@@H](CO)NC(=O)[C@@H]2CCNc3c(NC(=O)C(=O)CCC(=O)O)cc4cc([O-])c([O-])cc4[n+]32)N1)C(=O)N[C@H](CCC(N)=O)C(=O)N[C@H](CCCN([O-])C=O)C(=O)NCC(=O)O.[Fe+3] [Pvd III aKG (+Fe), Pvd type III α-ketoglutaryl]")
540

I'd like to know its IC50. The compound in question is NC(=O)CCC(=O)Nc1cc2cc(O)c(O)cc2[n+]2c1NCC[C@H]2C(=O)N[C@H](CO)C1=NCC[C@@H](C(=O)N[C@@H](CCCN(O)C=O)C(=O)N[C@@H](CCC(N)=O)C(=O)N[C@H](CCC(N)=O)C(=O)N[C@H](CCCN(O)C=O)C(=O)NCC(=O)O)N1 [Pvd III sa (−Fe), Pvd type III succinamide]
630
